Attribution: patent US9296741B2

Assay: Mouse liver microsome stability assay
Type: in vitro ADME
Conditions: male, CD1, mouse, microsomes, pH 7.4
Property: log10 of half-life at 0.5 μM (log10 of the value in min)
# values: log10(half-life at 0.5 μM), units min

| Molecule | Test Result |
| --- | --- |
| CN(c1ccc(Oc2ccccc2)c(-c2cn(C)c(=O)c3[nH]ccc23)c1)S(C)(=O)=O [Example 8] | 0.95 |
| Cn1cc(-c2cc(NS(C)(=O)=O)ccc2Oc2ccccc2C(F)(F)F)c2cc[nH]c2c1=O [Example 32] | 1.51 |
| CCS(=O)(=O)Nc1ccc(OCC2CC2)c(-c2cn(C)c(=O)c3[nH]ccc23)c1C [Example 251] | 1.64 |

Inquiry: Which log10 of half-life at 0.5 μM reading was recorded for the molecule CC1CC1COc1ccc(S(C)(=O)=O)cc1-c1cn(C)c(=O)c2[nH]ccc12 (stereo not shown) [Example 223] ?
Reply text: 1.68

Inquiry: Which log10 of half-life at 0.5 μM reading was recorded for the molecule Cn1cc(-c2cc(C(=O)NCc3ccc(OC(F)(F)F)cc3)ccc2Oc2ccc(F)cc2F)c2cc[nH]c2c1=O [Example 126] ?
Reply text: 1.40

Inquiry: Which log10 of half-life at 0.5 μM reading was recorded for the molecule CCS(=O)(=O)c1ccc(O[C@H]2CC[C@H](OC)CC2)c(-c2cn(C)c(=O)c3[nH]ccc23)c1 [Example 260] ?
Reply text: 1.46

Inquiry: Which log10 of half-life at 0.5 μM reading was recorded for the molecule Cn1cc(-c2cc(S(C)(=O)=O)ccc2OC2CCC2)c2cc[nH]c2c1=O [Example 213] ?
Reply text: 1.95

Inquiry: Which log10 of half-life at 0.5 μM reading was recorded for the molecule Cn1cc(-c2cc(NS(C)(=O)=O)ccc2Oc2ccccc2)c2cc(C(=O)O)[nH]c2c1=O [Example 70] ?
Reply text: 1.83

Inquiry: Which log10 of half-life at 0.5 μM reading was recorded for the molecule Cn1cc(-c2cc(NS(C)(=O)=O)ccc2Oc2ccc(C#N)cc2)c2cc[nH]c2c1=O [Example 33] ?
Reply text: 1.66

Inquiry: Which log10 of half-life at 0.5 μM reading was recorded for the molecule Cn1cc(-c2cc(S(=O)(=O)N3CCCC3)ccc2OCC2CC2(F)F)c2cc[nH]c2c1=O (stereo not shown) [Example 307] ?
Reply text: 0.30

Inquiry: Which log10 of half-life at 0.5 μM reading was recorded for the molecule Cn1cc(-c2cc(S(=O)(=O)c3ccccc3)ccc2OCC2CC2)c2cc[nH]c2c1=O [Example 285] ?
Reply text: 1.08

Inquiry: Which log10 of half-life at 0.5 μM reading was recorded for the molecule CCS(=O)(=O)Nc1ccc(OCc2ccnn2C)c(-c2cn(C)c(=O)c3[nH]ccc23)c1 [Example 142] ?
Reply text: 1.51

Inquiry: Which log10 of half-life at 0.5 μM reading was recorded for the molecule CCS(=O)(=O)c1ccc(N2CCCC2)c(-c2cn(C)c(=O)c3[nH]ccc23)c1 [Example 330] ?
Reply text: 1.45
